Tested on: HCI-027 (organoid from a triple-negative breast cancer xenograft)
protocol.summary: CTG-3D luminescence at 96 h relative to day-0 seeding control (ratio to day 0); higher = more growth / less cytotoxicity; PDxO 3D drug screen (set 2), 96 h, CTG-3D normalised to day-0 seeding control.
condition.set: 100 µM; days in culture: 164
parameter: CTG-3D luminescence at 96 h
Numbers only.

* CS(=O)(=O)CCNCc1ccc(-c2ccc3ncnc(Nc4ccc(OCc5cccc(F)c5)c(Cl)c4)c3c2)o1 | 0.00219
* CO[C@H]1C[C@@H]2CC[C@@H](C)[C@@](O)(O2)C(=O)C(=O)N2CCCC[C@H]2C(=O)O[C@H]([C@H](C)C[C@@H]2CC[C@@H](O)[C@H](OC)C2)CC(=O)[C@H](C)/C=C(\C)[C@@H](O)[C@@H](OC)C(=O)[C@H](C)C[C@H](C)/C=C/C=C/C=C/1C | 0.0163
* Nc1cc(C(F)(F)F)c(-c2cc(N3CCOCC3)nc(N3CCOCC3)n2)cn1 | 0.612
* CC(=O)c1c(C)c2cnc(Nc3ccc(N4CCNCC4)cn3)nc2n(C2CCCC2)c1=O | 0.892

Would you kindly look at the next entry?
## Task // returns reported CTG-3D luminescence at 96 h for input COc1cccc2c1C(=O)c1c(O)c3c(c(O)c1C2=O)C[C@@](O)(C(=O)CO)C[C@@H]3O[C@H]1C[C@H](N)[C@@H](O)[C@H](C)O1 [epirubicin]
## Result -0.00102

---

I'd be grateful if you could share measured CTG-3D luminescence at 96 h for these entries.
System: HCI-012 (organoid from a breast cancer xenograft)
protocol.summary: CTG-3D luminescence at 96 h relative to day-0 seeding control (ratio to day 0); higher = more growth / less cytotoxicity; PDxO 3D drug screen, 96 h, CTG-3D normalised to day-0 seeding control.
condition.set: 0.1 µM; days in culture: 162
Numbers only.

Sample records with CTG-3D luminescence at 96 h:
* NC1(C(=O)N[C@@H](CCO)c2ccc(Cl)cc2)CCN(c2nc[nH]c3nccc2-3)CC1 | 2.92
* O=C(c1ccc(F)c(F)c1Nc1ccc(I)cc1F)N1CC(O)([C@@H]2CCCCN2)C1 | 2.85
* Cc1cc(Nc2ncnc3ccc(NC4=NC(C)(C)CO4)cc23)ccc1Oc1ccn2ncnc2c1 | 3.58
* C[C@H](NC(=O)CCC(F)(F)F)C(=O)N[C@@H]1C(=O)N(CCO)c2ncccc2-c2ccccc21 | 2.93
* CS(=O)(=O)c1ccc(C(=O)Nc2ccc(Cl)c(-c3ccccn3)c2)c(Cl)c1 | 2.88

# batch size: 4; output CTG-3D luminescence at 96 h per entry
1. NC(=O)Nc1cc(-c2cccc(F)c2)sc1C(=O)N[C@H]1CCCNC1
2. NC(=O)c1cccc2cn(-c3ccc([C@@H]4CCCNC4)cc3)nc12
3. CC(C)n1nc(-c2ccc3oc(N)nc3c2)c2c(N)ncnc21
4. C=CCn1c(=O)c2cnc(Nc3ccc(N4CCN(C)CC4)cc3)nc2n1-c1cccc(C(C)(C)O)n1

## Result
[2.83, 2.6, 1.27, 3.54]

---

Answer each item with its documented CTG-3D luminescence at 96 h.
Test system: HCI-016 (organoid from a triple-negative breast cancer xenograft)
protocol.summary: CTG-3D luminescence at 96 h relative to day-0 seeding control (ratio to day 0); higher = more growth / less cytotoxicity; PDxO 3D drug screen, 96 h, CTG-3D normalised to day-0 seeding control.
condition.set: 0.1 µM; days in culture: 172
Numbers only.

Use the examples below as a reference point.
- Cc1nc(-c2cn3c(n2)-c2ccc(-c4cnn(C(C)(C)C(N)=O)c4)cc2OCC3)n(C(C)C)n1: 1.06
- O=C(c1ccc(F)c(F)c1Nc1ccc(I)cc1F)N1CC(O)([C@@H]2CCCCN2)C1: 0.984
- CC[C@H](NC(=O)[C@H](C)NC)C(=O)N1C[C@@H](O)C[C@H]1Cc1c(-c2[nH]c3cc(F)ccc3c2C[C@@H]2C[C@H](O)CN2C(=O)[C@H](CC)NC(=O)[C@H](C)NC)[nH]c2cc(F)ccc12: 1.23

## Task Can you share its CTG-3D luminescence at 96 h? I mean this compound: `C/C=C1\NC(=O)[C@H]2CSSCC/C=C/[C@H](CC(=O)N[C@H](C(C)C)C(=O)N2)OC(=O)[C@H](C(C)C)NC1=O`
## Result 0.107
